Origin of the recorded values: patent US20180339017A1

measured.target: human glucagon receptor (human, UniProt P47871 26-477)
Sequence (P47871 26-477): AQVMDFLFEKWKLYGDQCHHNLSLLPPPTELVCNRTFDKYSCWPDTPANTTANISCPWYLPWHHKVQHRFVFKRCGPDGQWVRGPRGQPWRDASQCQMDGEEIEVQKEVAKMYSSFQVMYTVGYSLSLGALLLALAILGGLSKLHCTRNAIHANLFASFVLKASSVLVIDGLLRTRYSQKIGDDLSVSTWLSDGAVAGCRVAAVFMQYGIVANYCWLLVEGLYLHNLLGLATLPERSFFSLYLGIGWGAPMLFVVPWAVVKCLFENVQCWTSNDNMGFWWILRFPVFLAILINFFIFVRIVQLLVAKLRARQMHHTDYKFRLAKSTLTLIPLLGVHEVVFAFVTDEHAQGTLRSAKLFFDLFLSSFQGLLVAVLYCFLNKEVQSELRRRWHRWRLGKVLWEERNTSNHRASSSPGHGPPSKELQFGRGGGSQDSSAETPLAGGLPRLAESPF
experimental.details: cell-based or functional assay
No end group written: not given here.
# Lookup of reported EC50 hGCGR (cAMP activity assay) keyed by entry
# value in nM; strip the unit string

A selection of reference data follows.
| binder | unit.abbrev | measurement |
| --- | --- | --- |
| HSQGTFTSDYSKYLDSKRAHDFVQWLLNT-NH2 [PD45] | nM | 0.03 |
| HSQGTFTSDYSKYLDWRRAQDFVQWLLNT-NH2 [PD23] | nM | 0.03 |

Proceed to the following item.
Reported EC50 hGCGR (cAMP activity assay) of HSQGTFTSDYSKYLDARRAQDFVQWLIRT-NH2 [PD25] : 0.04
